Exercise: for every item that follows, state its recorded z-score.
- assay.name: basal MM1S mitochondrial membrane potential changes, profiling panel, cell-based, JC-1 fluorescence, 24 h, 100 nL compound (AID 1170); further: test concentration not given here
- experimental.setup: higher = more signal
One number for each entry.

See these solved cases before continuing.
compound	z-score
CC(C)OC(=O)C=C1C[C@@H](c2ccccn2)O[C@@H](c2ccccn2)O1	-0.816
C=CC1(C(=O)OC)CC=C(C(=O)OC)CC1 (centres undefined)	-1.42
CN(C)CCCCCCNC(=O)[C@@H]1C[C@@H]2C(=O)N[C@@H](Cc3ccccc3)C(=O)N2[C@@H]1c1ccc(O)cc1	0.0429

Moving on to another compound below.
Ask: Annotate the compound `O=C1C[C@@](C(=O)NCCN2CCOCC2)(c2ccc([N+](=O)[O-])cc2)[C@@H](c2ccc(CO)cc2I)N1CC12CC3CC(CC(C3)C1)C2` with its measured z-score.
Reply: -2.17

---

- assay.name: S. cerevisiae RM11-1a growth modifiers, primary screen, strain RM11-1a, OD600, basal, 24 h (AID 1177);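 further: cultures grown under basal conditions with no added stressor; test concentration not given here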
- experimental.setup: OD600, 24 h, higher = more signal, called active from +8 up or from −8 down
z-score of -0.3 or higher: Fulfilled. Under -0.3: Not fulfilled.

Ask: Quick check: does `CC(=O)NCCCC[C@@H]1NC(=O)[C@@H]2C[C@H](C(=O)NCCCCCNC(=O)CS)[C@H](c3cccc(OCCO)c3)N2C1=O` have z-score greater than or equal to -0.3?
Reply: Not fulfilled

Ask: Quick check: does `Cc1nc2cc(Br)ccc2c(=O)o1` have z-score greater than or equal to -0.3?
Reply: Not fulfilled

Ask: Quick check: does `COc1ccc([Si](C)(C)[C@H]2[C@H](CC(=O)N3Cc4ccccc4C[C@H]3CO)O[C@@]3(C(=O)N(Cc4cccc(N5CCC5=O)c4)c4ccccc43)[C@@H]2C)cc1` have z-score greater than or equal to -0.3?
Reply: Fulfilled

Ask: Quick check: does `COC(=O)[C@@]1(Cc2ccc(F)cc2)[C@H]2c3cc(C(=O)N(C)C)n(Cc4cc(F)c(F)c(F)c4)c3C[C@H]2CN1C(=O)c1ccccc1` have z-score greater than or equal to -0.3?
Reply: Fulfilled

Ask: Quick check: does `CCOC(=O)C[C@H]1[C@H](OC(=O)c2ccc(-c3ccccc3)cc2)[C@@H](NC(=O)Cc2ccc(OC)cc2)c2cc(OCCCO)ccc2N1C(=O)c1ccccc1` have z-score greater than or equal to -0.3?
Reply: Fulfilled

Ask: Quick check: does `COC(=O)C(CC#Cc1ccc2c(c1)[C@]1(C(=O)N2)[C@H](C(=O)Nc2nc3ccccc3s2)[C@H]2C(=O)O[C@H](c3ccccc3)[C@H](c3ccccc3)N2[C@@H]1c1ccc(O)cc1)C(=O)OC` have z-score greater than or equal to -0.3?
Reply: Fulfilled

Ask: Quick check: does `COC(=O)[C@@]1(Cc2ccccc2)[C@H]2c3cc(C(=O)N4CCCC4)n(Cc4ccc(S(C)(=O)=O)cc4)c3C[C@H]2CN1C(=O)c1ccccc1` have z-score greater than or equal to -0.3?
Reply: Not fulfilled

---

- assay.name: CREB reporter modulators under forskolin, primary screen, cell-based, PC12, CRE-LacZ reporter, forskolin-stimulated (AID 1146);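 further: PC12 cells with 6xCRE LacZ reporter stimulated by forskolin 10 µM; beta-galactosidase reporter signal reflecting CREB driven transcription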
- experimental.setup: luminescence, 4.5 h, higher = more signal, called active from +8 up or from −8 down
Exercise: for every item that follows, state its recorded z-score.
Answers are plain numbers.

compound	z-score
C[N+](C)(C)CCCCNC(=O)[C@H]1C[C@H]2C(=O)N3CCC[C@H]3C(=O)N2[C@H]1c1cccc(OCCO)c1	-0.359
COc1ccc([Si](C)(C)[C@H]2[C@H](CCO)O[C@@]3(C(=O)N(Cc4ccc(N(C=O)c5ccccc5)cc4)c4ccccc43)[C@@H]2C)cc1	-1.24
CC(C)c1ccc(NN2C(C(O)c3ccc(B(O)O)cc3)C=CC3C(=O)N(c4ccccc4)C(=O)C32)cc1 (centres undefined)	1.65
C=CCN1C(=O)[C@@]2(Cc3ccccc31)N=C(c1ccc(OCCCO)cc1)O[C@H]2c1ccccc1	-1.81
O=C(NCCN1CCOCC1)C1N=C(c2ccc(OCCCO)cc2)N(c2ccccc2)O1 (centres undefined)	0.552

Give me z-score for each of these compounds, listed below.
1. C=CCN1C(=O)[C@@]2(CC=C)N=C(c3ccc(OCCCO)cc3)O[C@H]2c2ccccc21
2. CCOC(=O)C[C@H]1[C@H](OC(=O)c2ccc(C(=O)c3ccccc3)cc2)[C@@H](NC(=O)c2ccccc2)c2cc(OCCCO)ccc2N1C(=O)c1ccc2ccccc2n1
3. COc1ccc([Si](C)(C)[C@@H]2[C@@H](CCO)O[C@]3(C(=O)N(Cc4ccc(N(C=O)c5ccccc5)cc4)c4ccccc43)[C@H]2C)cc1
4. COc1ccc(-c2cc3c(c(-c4ccc(Oc5ccccc5)cc4)n2)[Si](C(C)C)(C(C)C)OC3)cn1
5. O=C(CS)NCCCCCCNC(=O)[C@@H]1C[C@@H]2C(=O)N[C@@H](Cc3ccccc3)C(=O)N2[C@@H]1c1cccc(OCCO)c1
6. COC(=O)[C@@]1(Cc2ccc(OC)cc2)[C@@H]2C(=CC(=O)[C@H]2CC(=O)C(=O)N2CCCC2)CN1C(=O)c1ccccc1
7. Cc1ccccc1C(O)C1C=CC2C(=O)N(c3ccccc3)C(=O)C2N1Nc1ccc(C(C)C)cc1 (centres undefined)
8. COCCOC(=O)N1C(=O)[C@@]2(c3cc(C#CCCO)ccc31)[C@H](C(N)=O)[C@H]1C(=O)O[C@H](c3ccccc3)[C@H](c3ccccc3)N1[C@@H]2c1ccc(O)cc1

Reply:
[-2.04, -0.712, 1.03, -0.0129, -0.112, 0.0528, 0.131, -0.702]

Give me z-score for each of these compounds, listed below.
1. CC(C)N1C(=O)[C@@]2(Cc3ccccc31)c1ccccc1C(=O)N(Cc1ccccc1Cl)[C@H]2c1ccc(CO)cc1
2. CN(C)CCCCCCNC(=O)[C@H]1C[C@H]2C(=O)N3CCC[C@H]3C(=O)N2[C@H]1c1ccc(O)cc1
3. COC(=O)[C@@]1(Cc2ccc(F)cc2)[C@H]2c3cc(C(=O)N(C)C)n(Cc4cc(F)c(F)c(F)c4)c3C[C@H]2CN1C(=O)c1ccccc1
4. CCC(CC)C(O)C1C=CC2C(=O)NC(=O)C2N1Nc1ccccn1 (centres undefined)
5. COc1cc2c(cc1OC)CN(C(=O)[C@H]1[C@@H]3C(=O)O[C@@H](c4ccccc4)[C@@H](c4ccccc4)N3[C@@H](c3ccc(O)cc3)[C@]13C(=O)Nc1ccc(C#CCCO)cc13)CC2

Reply:
1: -0.389; 2: -0.933; 3: 0.578; 4: 0.783; 5: -0.163

Give me z-score for each of these compounds, listed below.
1. CO[C@H]1O[C@H](CO)[C@@H](OC(=O)Nc2cccc(F)c2)[C@H](OC(=O)Nc2ccccc2)[C@@H]1OC(=O)Nc1ccccc1
2. O=C1C[C@]2(c3ccc([N+](=O)[O-])cc3)C(=O)N(CC(F)(F)F)c3cc(CO)ccc3[C@H]2N1C1CCCCC1
3. CC1CC/C=C\[C@H]2OC34C=CCN(C(C)(C)C)C(=O)[C@H]3N(C(C)CO)C(=O)[C@@H]4C2C(=O)O1 (some centres undefined)

Reply:
1. -0.74
2. -0.496
3. 0.826

Give me z-score for each of these compounds, listed below.
1. COC(=O)[C@@]1(Cc2ccc(OC)cc2)[C@H]2c3cc(C(=O)N4CCCC4)n(Cc4ccc(C)c(F)c4F)c3C[C@H]2CN1C(=O)c1ccccc1
2. CCCC[C@@H]1C[C@H]1[C@@H](NC(=O)C(C)(C)C)c1ccc(C(F)(F)F)cc1
3. CCN(CC)c1ccc(N2CC=CC34O[C@@H]5C=CCCOC(=O)C5[C@H]3C(=O)N(CCCCCCO)[C@@H]4C2=O)cc1 (some centres undefined)

Reply:
-0.572
1.44
-0.716

Give me z-score for each of these compounds, listed below.
1. C=C[C@H](C)[C@@H](OC(=O)Nc1ccc(OC)cc1)c1ccc(O)c2ccccc12
2. CC(=O)n1cc(C(O)C2C=CC3C(=O)N(c4ccccc4)C(=O)C3N2Nc2ccc([N+](=O)[O-])cc2)c2ccccc21 (centres undefined)
3. C=CC[C@]1(C(=O)NCc2ccccc2)N=C(c2ccc(OCCCO)cc2)O[C@H]1c1ccccc1N=[N+]=[N-]
4. CC(C)C(O)C1C=CC2C(=O)N(c3ccccc3)C(=O)C2N1Nc1ccc([N+](=O)[O-])cc1 (centres undefined)
5. O=C1O[C@@H](c2ccccc2)[C@@H](c2ccccc2)N2[C@@H](c3ccccc3OCCO)[C@]3(C(=O)Nc4ccccc43)[C@@H](C(=O)Nc3nc4ccccc4s3)[C@H]12

Reply:
1. 0.819
2. -0.647
3. -0.967
4. -0.343
5. 3.07
